# System: MALME-3M melanoma
# test.protocol: NCI-60 one-dose screen, 48 h (100 = growth as untreated, 0 = no growth, -100 = all killed)
# condition.notes: 10 µM unless noted
The panel holds about 83,000 compounds, 20% with a hit somewhere; the sample as a whole holds those more often.
test.readout: growth (%)
Answers are plain numbers, in %.

Example results:
C=C1C(=O)O[C@H]2[C@H]1CC/C(Cn1cc(Cn3ccc4ccccc43)nn1)=C\CC[C@@]1(C)O[C@@H]21 = -54.5
COc1ccc(C2Nc3ccccc3-n3cccc32)cc1 (stereo not given) = 100
N=c1c2ccccc2nc2n1CCCCC2 = 107
COc1cnc2c(c1)C(=O)c1c-2n(CCCN2CCNCC2)c(=O)c2cc([N+](=O)[O-])ccc12 = -71.4

Provide the reported growth of each entry below, same order.
1. O=C1NC(=O)C(CC(=O)n2c(-c3ccccc3)nc3ccccc32)C(=O)N1
2. CN(C)CC(=O)Nc1ccc(Cn2nnc3c2C(=O)c2nnn(Cc4ccc(NC(=O)CN(C)C)cc4)c2C3=O)cc1
3. Nc1cc2ccncc2c2ccccc12

Out:
[116, -81.2, 97.6]

###

# Test system: MDA-MB-231 breast
# test.protocol: NCI-60 one-dose screen, 48 h (100 = growth as untreated, 0 = no growth, -100 = all killed)
# condition.notes: 10 µM unless noted
About 83,000 compounds went through this panel and 20% of them were active in at least one assay; those are over-represented in the sample as a whole.
Give growth for every item shown.
Answers are plain numbers, in %.

Sample answers from the record:
Oc1ccc(Nc2nccc(-c3ccc4ccccc4c3)n2)cc1 = 30.5
COc1ccc2nc3cc(Cl)ccc3c(N3CCN(c4nccc(NCc5ccccc5)n4)CC3)c2c1 = 67.5
CC[C@H](Nc1nc(N)nc(C)c1C#N)c1nc2cccc(NCc3ccc(C(=O)NO)cc3)c2c(=O)n1-c1ccccc1 = 7.58

Report growth for every entry below.
1. CCN(CC)CCCCNc1ccc(NCCCCN(CC)CC)c2c1C(=O)c1ccccc1C2=O
2. O=C(CNC1C2CC3CC(C2)CC1C3)Sc1nnc2sc3ccccc3n12 (stereo not given)
3. C/C(=C(/c1ccc(O)cc1)c1ccc(OCCN2CCCC2)cc1)c1ccccc1
4. CN(C)CC(=O)Nc1ccc(Cn2nnc3c2C(=O)c2nnn(Cc4ccc(NC(=O)CN(C)C)cc4)c2C3=O)cc1

Out:
80.5
81.5
49.6
-14.2

###

# Test system: DU-145 prostate
# test.protocol: NCI-60 one-dose screen, 48 h (100 = growth as untreated, 0 = no growth, -100 = all killed)
# condition.notes: 10 µM unless noted
Compounds without any hit were thinned out: in the full panel of roughly 83,000, 20% have a hit.
Record met whenever growth is at 70% or higher; record not met when lower.

Take a look at these entries with their results.
CCCCCCCCCCCCS(=O)CC(C)O (stereo not given) = met
Nc1cccc(NC(=O)C(=O)Nc2cccc(N)c2)c1 = met
COC(/C=C/c1ccc([N+](=O)[O-])cc1)OC = met

In: Is the recorded value of growth equal to or greater than 70% for this compound? Cc1ccc(-c2nc(/C=N/Nc3cc(C)nc4ccc(Br)cc34)c(C)o2)cc1
Out: not met

In: Reported growth at or above 70%? COc1ccc(-c2cc(-c3cccnc3)nc3sc4c(=O)n(-c5ccc(C)cc5)nnc4c23)cc1OC
Out: met

In: Record COc1cnc2c(c1)C(=O)c1c-2n(CCCN2CCNCC2)c(=O)c2cc([N+](=O)[O-])ccc12 ; criterion: growth no lower than 70%. Met?
Out: not met

In: Identify whether the reported growth of the following compound is 70% or greater: CC(=O)CC(C)(C)c1ccc(Cl)cc1
Out: met

In: Does the reported growth for c1ccc(Sc2ncnc3ccccc23)cc1 fall at or above the 70% mark?
Out: met
